- Test target: HuR (Homo sapiens, UniProt Q15717)
- Construct: expressed in transfected cells; host or cells: U251 glioma cells, doxycycline-inducible constructs
- Sequence (Q15717 whole entry): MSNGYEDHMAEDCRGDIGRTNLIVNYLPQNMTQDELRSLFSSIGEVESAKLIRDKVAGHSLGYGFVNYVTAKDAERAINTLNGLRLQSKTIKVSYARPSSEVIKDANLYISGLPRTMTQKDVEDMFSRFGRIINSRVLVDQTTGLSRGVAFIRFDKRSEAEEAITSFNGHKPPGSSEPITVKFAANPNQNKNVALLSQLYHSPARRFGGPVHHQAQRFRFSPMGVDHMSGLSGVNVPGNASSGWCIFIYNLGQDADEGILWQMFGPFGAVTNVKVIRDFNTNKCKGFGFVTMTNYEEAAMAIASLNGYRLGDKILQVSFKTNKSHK
- Test: cell-based split firefly luciferase-HuR dimerization assay
- Condition set: U251 cells co-expressing HuR-Nluc and HuR-Cluc, 6 hours of treatment; read-out: HuR IC50
pIC50: −log10 of the molar value.
Assay readout: pIC50

Here's what some known entries look like.
{"Molecule": "FC1(F)CCC(Nc2ccc3ncc(-c4ccc5[nH]ncc5c4)n3n2)CC1 [Compound 46]", "pIC50": 5.68}
{"Molecule": "FC1(F)CCC(Nc2ccc3ncc(-c4ccc5cn[nH]c5c4)n3n2)CC1 [Compound 23]", "pIC50": 5.55}

(I) CCCNc1ccc2ncc(-c3ccc4[nH]ncc4c3)n2n1 [Compound 48]
(II) CN1CCN(c2ccc3ncc(-c4ccc5[nH]ncc5c4)n3n2)CC1 [Compound 52]
(III) CN(CCNc1ccc2ncc(-c3ccc(C(N)=O)cc3)n2n1)C(=O)OC(C)(C)C [SRI-43415]
IN: Descending sort on pIC50 required. To answer, write out the labels according to the requested order.
OUT: I, II, III
(I: 6.15, II: 5.10, III: 4.40)
